# Tested on: PC-3 prostate
# measurement_notes: NCI-60 one-dose screen, 48 h
# experimental_conditions: 10 µM unless noted
# Description: Growth inhibition of the PC-3 human tumor cell line is measured as a screen for anti-cancer activity. Cells are grown in 96 well plates and exposed to the test compound for 48 hours. Compounds are tested at a single concentration, which is 10^-5 M for most compounds. The reported endpoint is percent growth (GI% or GIPRCNT), where numbers from 0 - 100% represent growth inhibition, and numbers from -100% - 0 represent cell death. For example, a value of 40 represents 60% growth inhibition. […]
The panel holds about 83,000 compounds, 20% with a hit somewhere; the sample as a whole holds those more often. The source made the active and inactive calls. The calls were made as follows: active = growth percent below 10; inactive = the rest.
Outcome field: choose from true = active, false = inactive

**Query** Assay result, entry "C[C@@H]1N=C(c2ccc(Cl)cc2Cl)Nc2nc3ccccn3c2C1=O" — outcome?
**Result** false

###

# Test system: HCC-2998 colon
# measurement_notes: NCI-60 one-dose screen, 48 h (100 = growth as untreated, 0 = no growth, -100 = all killed)
# experimental_conditions: 10 µM unless noted
Compounds without any hit were thinned out: in the full panel of roughly 83,000, 20% have a hit.
growth strictly under 80% means Met; at 80% or over means Not met.

>  <molecule>
Cc1ccc2nc(/C=C/c3ccc(N(C)C)cc3)cc(C)c2c1

>  <target_desc>
HCC-2998 colon

>  <cat>
Met

$$$$
>  <molecule>
CCOC(=O)CC1C(CNC(=O)NC)OC(n2cnc3c(NC(=O)Nc4ccccc4)ncnc32)C1O[Si](C)(C)C(C)(C)C (stereo not given)

>  <target_desc>
HCC-2998 colon

>  <cat>
Met

$$$$

**Query** Please check: growth for OC1CSSC1Cn1cnc2c(Nc3ccc(F)c(Cl)c3)ncnc21 (stereo not given) , strictly under 80% or not?
**Result** Not met

**Query** Please check: growth for "COCCNC(=O)Cc1cc(-c2ccc(Cl)cc2)n(-c2ccccc2)c1C" , strictly under 80% or not?
**Result** Not met

###

# System: CCRF-CEM leukemia
# measurement_notes: NCI-60 one-dose screen, 48 h (100 = growth as untreated, 0 = no growth, -100 = all killed)
# experimental_conditions: 10 µM unless noted
# Method: Growth inhibition of the CCRF-CEM human tumor cell line is measured as a screen for anti-cancer activity. Cells are grown in 96 well plates and exposed to the test compound for 48 hours. Compounds are tested at a single concentration, which is 10^-5 M for most compounds. The reported endpoint is percent growth (GI% or GIPRCNT), where numbers from 0 - 100% represent growth inhibition, and numbers from -100% - 0 represent cell death. For example, a value of 40 represents 60% growth inhibition. […]
About 83,000 compounds went through this panel and 20% of them were active in at least one assay; those are over-represented in the sample as a whole.
quantity_measured: growth (%)
Provide the reading as a plain figure in %.

**Query** Tell me growth reported for "Cn1cc(-c2nc(-c3c[nH]c4c(Cl)nccc34)cs2)c2ccccc21"
**Result** 92.3

**Query** Tell me growth reported for "N#CSCc1cc(Cl)c(CSC#N)cc1Cl"
**Result** 2.13

**Query** Tell me growth reported for "COC12C=C/C(=C(/C(=O)OCc3ccccn3)C(=O)CCCCCCCCC3(OC)C=C/C(=C(/C(=O)OCc4ccccn4)C(=O)CCCCCCCC1)O3)O2"
**Result** 0.645

**Query** Tell me growth reported for "Cc1nc2cccc(NCc3ccc(C(=O)NO)cc3)c2c(=O)n1-c1ccccc1"
**Result** 13.4

**Query** Tell me growth reported for CN1C(=O)N(C)C2C1NN=c1s/c(=C\c3ccccc3F)c(=O)n12 (stereo not given)
**Result** 11

###

# System: CCRF-CEM leukemia
# measurement_notes: NCI-60 one-dose screen, 48 h (100 = growth as untreated, 0 = no growth, -100 = all killed)
# experimental_conditions: 10 µM unless noted
This is part of a sample that, as a whole, favours compounds with a hit. Of some 83,000 tested, about 20% had one in any assay.
// values below are reported growth
Provide the reading as a plain figure in %.

The examples below pair each entry with its known result.
>  <molecule>
COc1ccc(-c2cc(-c3ccc(Nc4nc(Nc5ccc(Cl)cc5)nc(Nc5ccc(Cl)cc5)n4)cc3)no2)cc1

>  <target_desc>
CCRF-CEM leukemia

>  <growth [%]>
38.9

$$$$
>  <molecule>
O=S(=O)(Nc1ccc(Br)cc1)c1ccc(-c2cnc(C3CC3)o2)cc1

>  <target_desc>
CCRF-CEM leukemia

>  <growth [%]>
7.7

$$$$
>  <molecule>
CC(=O)OCCOc1cc(Cl)c(Cl)cc1Cl

>  <target_desc>
CCRF-CEM leukemia

>  <growth [%]>
-63.4

$$$$

**Query** Tell me growth reported for "O=S(=O)(c1ccc(NCSc2nc3ccccc3s2)cc1)c1ccc(NCSc2nc3ccccc3s2)cc1"
**Result** 71.8

**Query** Tell me growth reported for "COC(=O)[C@H](C)NC(=O)[C@@H]1CCCN1C(=O)CNC(=O)[C@H](C)N"
**Result** 115

**Query** Tell me growth reported for "O=C(Nc1ccc(Oc2cccc(F)c2)c(Cl)c1)c1cnccn1"
**Result** 18.4

**Query** Tell me growth reported for "C[C@H]1c2ccccc2CN1CCCOc1cc2c(cc1OCC1CC1)C1(CCCC1)C(N)=N2"
**Result** 54.6

**Query** Tell me growth reported for C=C1CC[C@@H]2[C@](C)(COC(C)=O)[C@H](OC(C)=O)CC[C@@]2(C)[C@@H]1CC(Nc1ccc(S(=O)(=O)Nc2nccc(C)n2)cc1)C1=CCOC1=O (stereo partly drawn)
**Result** -19.2

###

# Tested on: K-562 leukemia
# measurement_notes: NCI-60 one-dose screen, 48 h (100 = growth as untreated, 0 = no growth, -100 = all killed)
# experimental_conditions: 10 µM unless noted
This is part of a sample that, as a whole, favours compounds with a hit. Of some 83,000 tested, about 20% had one in any assay.
// values below are reported growth
Provide the reading as a plain figure in %.

The examples below pair each entry with its known result.
>  <compound>
Cc1ccc(S(=O)(=O)N(CCC(=O)O)c2ccccc2)cc1

>  <target_desc>
K-562 leukemia

>  <quantity_measured>
growth

>  <reported_result>
93.4

$$$$
>  <compound>
O=C1c2c(c3c4cc(F)ccc4oc3c3[nH]c4ccccc4c23)C(=O)N1O

>  <target_desc>
K-562 leukemia

>  <quantity_measured>
growth

>  <reported_result>
26.1

$$$$
>  <compound>
Cc1ccc(C23CCC(=O)N2CCc2cncn23)cc1 (stereo not given)

>  <target_desc>
K-562 leukemia

>  <quantity_measured>
growth

>  <reported_result>
112

$$$$

**Query** Please report growth with K-562 leukemia for item "O=C(OCc1ccc2c(Br)cc(Br)c(O)c2n1)N1CCN(C(=O)c2cc3ccccc3[nH]2)CC1" .
**Result** 21.7

**Query** Please report growth with K-562 leukemia for item "O=C(Nc1ncc(Cc2ccc(Cl)cc2)s1)C1=NCCCCN1" .
**Result** 95.4

**Query** Please report growth with K-562 leukemia for item "COc1ccc(C2=C/C(=C\c3ccccc3O)C(=O)N2Cc2ccccc2)cc1" .
**Result** 51.1

**Query** Please report growth with K-562 leukemia for item "CN1CCN(Cc2ccc(NC(=O)c3cncc(C#Cc4c(N)ncc5cc(F)ccc45)c3)cc2C(F)(F)F)CC1" .
**Result** -50

**Query** Please report growth with K-562 leukemia for item "Cc1cc2c(c(C)n1)CN(C(=O)Nc1nc(-c3cncs3)ccc1N)C2" .
**Result** 101

**Query** Please report growth with K-562 leukemia for item "c1ccc2cc(Cn3cc[n+](Cc4ccc5ccccc5c4)c3)ccc2c1" .
**Result** 22.5

**Query** Please report growth with K-562 leukemia for item "CCCCC1=C(Br)C(=O)c2ncccc2C1=O" .
**Result** 30.2

###

# System: LOX IMVI melanoma
# measurement_notes: NCI-60 one-dose screen, 48 h
# experimental_conditions: 10 µM unless noted
The panel holds about 83,000 compounds, 20% with a hit somewhere; the sample as a whole holds those more often. Activity calls are given as the source filed them. Rule for the calls: active = growth percent below 10; inactive = the rest.
Outcome field: choose from active, inactive

Study these solved cases before continuing.
>  <molecule>
FC(F)(F)c1cc(N2CCCCC2)nc(NCCCNc2ccnc3cc(Cl)ccc23)n1

>  <cat>
inactive

$$$$
>  <molecule>
COc1ccc(-c2ccc(-c3ccc(C(=N)N)o3)o2)cc1

>  <cat>
active

$$$$
>  <molecule>
O=C(O)c1nn(-c2ccc(Cl)cc2)nc1N1CCCC1

>  <cat>
inactive

$$$$
>  <molecule>
O=C(Nc1cccc(Cn2c(=O)[nH]c3ccc(Oc4ncccn4)cc3c2=O)c1)c1cccc(Cl)c1

>  <cat>
inactive

$$$$
>  <molecule>
Cn1nc(-c2ccc(Cl)cc2)nc2c(=O)n(C)c(=O)nc1-2

>  <cat>
active

$$$$
>  <molecule>
COc1cc(C(=O)n2nc(NCCCc3ccccc3)c3cc(N)ccc32)cc(OC)c1OC

>  <cat>
inactive

$$$$

**Query** Assay result, entry CCOC(=O)CC1C(CNC(=O)NC)OC(n2cnc3c(NC(=O)Nc4ccccc4)ncnc32)C1O[Si](C)(C)C(C)(C)C (centres undefined) — outcome?
**Result** inactive

**Query** Assay result, entry "O=C(Nc1cccc(Cl)c1)Oc1c(Cl)c(Cl)c(Cl)c(Cl)c1Cl" — outcome?
**Result** inactive

**Query** Assay result, entry "CC(=O)OCC(=O)O[C@@H]1C[C@]2(C(C)C)O[C@@]1(C)[C@@H]1CC[C@@H](C)[C@H]1[C@@H]2OC(=O)/C=C/c1ccccc1" — outcome?
**Result** inactive
